# Subject of test: TRBC1 peptide (biotinylated) (human)
# Method description: TRF assay, scFv on biotin-peptide/neutravidin plate
Readout: TRBC1 Binding (TRF units)
Lab book: enter the figure in TRF units, no units written.

As a guide, the following entries are already answered.
| Binder | Experimental result |
| --- | --- |
| CP_03_F09 (scFv, not shown: small tags and cut ends) scFv: QMQLVQSGAEVKKPGASVKVSCKASGYTFASYYMHWVRQAPGQGLEWMGIINPSGGSTSYAQKFQGRVTMTRDTSTSTVYMELSRLRSDDTAVYYCASNRGGSYKSVGMDVWGQGTTVTVSSGGGGSGGGGSGGGASNFMLTQPQSVSESPGKTVTISCTRSSGNFASKYVQWYQQRPGSSPTTVIYENYQRPSGVPDRFSGSIDSSSNSATLTISGLKTEDEADYYCQSYDEVSVVFGGGTQLTVLGQPAA | 889 |
| CP_03_F10 (scFv, not shown: small tags and cut ends) scFv: EVQLVESGAEVKKPGASVKVSCKASGYTFTGYYMHWVRQAPGQGLEWMGRINPNSGGTNYAQKFQGRVTMTRDTSISTAYMELSSLRSEDTAVYYCARFGERYAFDIWGQGTLVTVSSGGGGSGGGGSGGGASQSELTQPPSASGSPGQSVTISCTGTSTDVGAFHFVSWYQHTPGKAPKLLISEVRKRASGVPDRFSGSRSGNTASLTVSGLQSEDEADYFCSAYTGSNYVFGSGTKLTVLGQPAA | 1680 |

Read the next record carefully.
The binder identified as CP_03_E05 (scFv, not shown: small tags and cut ends) scFv: EVQLVESGGGVVQPGGSLRLSCAASGFTFSSYAMSWVRQAPGKGLEWVSAISGSGGSTYYADSVKGRFSISRDNSKNTLYLQMNSLRAEDTAVYYCARTRSSGAFDIWGQGTLVTVSSGGGGSGGGGSGGGASNFMLTQPHSVSESPGKTVTISCTRSSGSIASKYVQWYQQRPGSSPTTVIYEDNQRPSGVPDRFSGSIDTSSNSASLTISGLRTEDEADYYCHSYDSNNHSVFGGGTKVTVLGQPAA registered its TRBC1 Binding at 1620

The reported measurements were obtained from patent US20250314655A1.
